Assay: in vivo
Conditions: po, rat
Description: The LD50 was determined in three species, the mouse (male, 18-25 g), the albino rat (female, 150-200 g) and the albino guinea pig (male 180-280 g) by oral administration and in the albino rat by intraperitoneal administration. The animals are fasted overnight prior to testing. […] The animals were housed five per cage (rat and guinea pig) or ten per cage (mouse) with free access to food and water. The number of dead animals was recorded daily for five consecutive days.
QUANTITY: LD50 at 120 h (mg/kg)
Numbers only, in mg/kg.

Input line: Any idea what LD50 at 120 h was measured for CCC(C)Cn1c(=O)n(C)c(=O)c2[nH]c(C)nc21 (stereo not shown) [Compound 4383] ?
Output line: 88.7

###

Exercise: for every item that follows, state its recorded EC (maximum relaxation).
Test system: guinea pig tracheal chain
Assay: SP: spasmolytic activity in vitro, guinea pig tracheal chain preparation
Assay type: cell-based
Settings: Cavia porcellus; given as fraction of molar, e.g. M/1000; read-out: SP in vitro, C: molar (M) concentration required to produce maximum relaxation
Numbers only, in M.

COMPOUND	TESTED ON	UNIT STRING	EC (maximum relaxation)
CCC(C)Cn1c(=O)n(C)c(=O)c2[nH]c(C)nc21 (stereo not shown)	guinea pig tracheal chain	M	0.001
CCC(C)Cn1c(=O)n(C)c(=O)c2[nH]cnc21 (stereo not shown)	guinea pig tracheal chain	M	0.001
Cc1nc2c([nH]1)c(=O)n(C)c(=O)n2C	guinea pig tracheal chain	M	0.0714
CC(C)Cn1c(=O)n(C)c(=O)c2[nH]cnc21	guinea pig tracheal chain	M	0.001
CCCC(C)Cn1c(=O)n(C)c(=O)c2[nH]c(C)nc21 (stereo not shown)	guinea pig tracheal chain	M	0.05

Answer for every listed entry: what is its EC (maximum relaxation)? The entries follow.
1. Cn1c(=O)c2[nH]cnc2n(C)c1=O
2. Cc1nc2c([nH]1)c(=O)n(C)c(=O)n2CC(C)C

Output line:
0.1
0.001

###

Assay: LD50, mouse
Conditions: in vivo, po
Description: The LD50 was determined in three species, the mouse (male, 18-25 g), the albino rat (female, 150-200 g) and the albino guinea pig (male 180-280 g) by oral administration and in the albino rat by intraperitoneal administration. The animals are fasted overnight prior to testing. […] The animals were housed five per cage (rat and guinea pig) or ten per cage (mouse) with free access to food and water. The number of dead animals was recorded daily for five consecutive days. […]
QUANTITY: LD50 at 120 h (mg/kg)
Give bare numbers, in mg/kg.

Input line: Give the measured LD50 at 120 h of CCC(C)Cn1c(=O)n(C)c(=O)c2[nH]c(C)nc21 (stereo not shown) .
Output line: 66.6

###

Assay: in vivo
Details: ip, rat
QUANTITY: LD50 at 120 h (mg/kg)
Numbers only, in mg/kg.

Input line: State the recorded LD50 at 120 h for this entry: CCC(C)Cn1c(=O)n(C)c(=O)c2[nH]c(C)nc21 (stereo not shown) [Compound 4383]
Output line: 24.6
